# Test system: M14
# protocol-notes: NCI-60 cell line panel: M14
# Type: cell-based
# setup-conditions: Melanoma, total growth inhibition
Hi there, I'd appreciate the recorded TGI for every entry that follows.
Number first, unit second: that is the form wanted.

molecule	TGI
CCN1CCN(c2ccc(NC(=O)Nc3ccc(-c4cc(C(=O)NC(C)C)c5ncccc5n4)cc3)cc2C(F)(F)F)CC1 [Compound 13f]	1.9 µM
CNC(=O)c1cc(-c2ccc(NC(=O)Nc3ccc(N4CCN(C)CC4)c(C(F)(F)F)c3)cc2)nc2cccnc12 [Compound 13b]	3.71 µM
CCN1CCN(c2ccc(NC(=O)Nc3ccc(-c4cc(C(=O)NC)c5ncccc5n4)cc3)cc2C(F)(F)F)CC1 [Compound 13c]	1.05 µM

For each of the items listed, what is its TGI?
1. CNC(=O)c1cc(Oc2ccc(NC(=O)Nc3ccc(Cl)c(C(F)(F)F)c3)cc2)ccn1 [Sorafenib, reference compound]
2. CC(C)NC(=O)c1cc(-c2ccc(NC(=O)Nc3ccc(N4CCN(C)CC4)c(C(F)(F)F)c3)cc2)nc2cccnc12 [Compound 13e]

(A)
1. 3.16 µM
2. 1.41 µM

---

Hi there, I'd appreciate the recorded TGI for every entry that follows.
# System: IGROV1
# protocol-notes: NCI-60 cell line panel: IGROV1
# Type: cell-based
# setup-conditions: Ovarian Cancer, total growth inhibition

compound	TGI
CCN1CCN(c2ccc(NC(=O)Nc3ccc(-c4cc(C(=O)NC(C)C)c5ncccc5n4)cc3)cc2C(F)(F)F)CC1 [Compound 13f]	5.11 µM
CNC(=O)c1cc(-c2ccc(NC(=O)Nc3ccc(N4CCN(C)CC4)c(C(F)(F)F)c3)cc2)nc2cccnc12 [Compound 13b]	36.6 µM
CCN1CCN(c2ccc(NC(=O)Nc3ccc(-c4cc(C(=O)NC)c5ncccc5n4)cc3)cc2C(F)(F)F)CC1 [Compound 13c]	5.61 µM

For each of the items listed, what is its TGI?
1. CC(C)NC(=O)c1cc(-c2ccc(NC(=O)Nc3ccc(N4CCN(C)CC4)c(C(F)(F)F)c3)cc2)nc2cccnc12 [Compound 13e]
2. CNC(=O)c1cc(Oc2ccc(NC(=O)Nc3ccc(Cl)c(C(F)(F)F)c3)cc2)ccn1 [Sorafenib, reference compound]

(A)
1.39 µM
10 µM

---

# System: KM12
# protocol-notes: NCI-60 cell line panel: KM12
# Type: cell-based
# setup-conditions: Colon Cancer, total growth inhibition
assay-metric: TGI (µM)
Numbers only, in µM.

Answered cases to consult:
compound	measurement-units	observed-measurement
CC(C)NC(=O)c1cc(-c2ccc(NC(=O)Nc3ccc(N4CCN(C)CC4)c(C(F)(F)F)c3)cc2)nc2cccnc12 [Compound 13e]	µM	1.66
CCN1CCN(c2ccc(NC(=O)Nc3ccc(-c4cc(C(=O)NC)c5ncccc5n4)cc3)cc2C(F)(F)F)CC1 [Compound 13c]	µM	6.65
CNC(=O)c1cc(-c2ccc(NC(=O)Nc3ccc(N4CCN(C)CC4)c(C(F)(F)F)c3)cc2)nc2cccnc12 [Compound 13b]	µM	43.3

Turning to the following compound.
Data point: CCN1CCN(c2ccc(NC(=O)Nc3ccc(-c4cc(C(=O)NC(C)C)c5ncccc5n4)cc3)cc2C(F)(F)F)CC1 [Compound 13f] ; TGI = 2.91

---

# Test system: K-562
# protocol-notes: NCI-60 cell line panel: K-562
# Type: cell-based
# setup-conditions: Homo sapiens, K562, Leukemia
Hi there, I'd appreciate the recorded pIC50 for every entry that follows.
Give bare numbers, as −log10 of the molar value.

molecule	observed-measurement
CCN1CCN(c2ccc(NC(=O)Nc3ccc(-c4cc(C(=O)NC(C)C)c5ncccc5n4)cc3)cc2C(F)(F)F)CC1 [Compound 13f]	6.00
CC(C)NC(=O)c1cc(-c2ccc(NC(=O)Nc3ccc(N4CCN(C)CC4)c(C(F)(F)F)c3)cc2)nc2cccnc12 [Compound 13e]	6.04

For each of the items listed, what is its pIC50?
1. CCN1CCN(c2ccc(NC(=O)Nc3ccc(-c4cc(C(=O)NC)c5ncccc5n4)cc3)cc2C(F)(F)F)CC1 [Compound 13c]
2. CNC(=O)c1cc(-c2ccc(NC(=O)Nc3ccc(N4CCN(C)CC4)c(C(F)(F)F)c3)cc2)nc2cccnc12 [Compound 13b]

(A)
1. 6.18
2. 5.67
